Test system: α-keto acid reductase
experimentalDetails: Substrate specificity of α-keto acid reductase (reduction reaction)
Type: biochemical, Leuconostoc mesenteroides subsp. dextranicum
experimentalConditions: coenzyme NADH, substrate 1 mM; reduction activity of 2-chlorophenyl glyoxylic acid taken as 100
Method: The enzyme obtained in Example 9 was incubated with various α-keto acids, ketones, ketols, etc. The activities of the reduction reaction are shown in Table 8, defined as relative activities taking the reduction activity of 2-chlorophenyl glyoxylic acid as 100.
Checkbox rule: Relative activity lower than 4% = 1; Relative activity not lower than 4% = 0.

Example cases with answers are listed next.
compound	assignedLabel
CCC(=O)C(=O)O	1
O=C(O)C(=O)c1ccccc1	0
O=C(O)C(=O)Cc1ccccc1 [α-keto-4-phenylpyruvic acid]	1
O=C(O)C(=O)c1cccc(Cl)c1	0

Prompt line: For O=C(O)C(=O)Cc1ccccc1 [β-phenylpyruvic acid] , is the recorded Relative activity below the cut-off of 4%?
Response line: 1

Prompt line: Entry CC(C)C(=O)C(=O)O please
Response line: 0
